# TEST DETAILS: In vivo pharmacokinetic experiment, oral and subcutaneous administration
# Parameters: species or system male SD (Sprague Dawley) rats
# CONDITION SET: male, Sprague-Dawley, rat, plasma, po, 5 mg/kg, oral suspension 5 mg/kg, 12 h experiment
Where a name gives a salt, the structure may show the parent alone.
REPORTED METRIC: AUC(0-t)
Record the result as number plus unit.

Can you share its AUC(0-t)? I mean this compound: O=C1CN2Cc3c(ccc(Cl)c3Cl)N=C2N1 [Anagrelide HCl, Anagrelide hydrochloride]
320 ng·h/mL

###

# TEST DETAILS: In vivo pharmacokinetic experiment, oral and subcutaneous administration
# Set-up: species or system male SD (Sprague Dawley) rats
# CONDITION SET: SCB, subcutaneous silica hydrogel composite #29HG depot 17.5 mg/kg, 10 d experiment
# Experimental: Silica hydrogel composite #29HG was used as a depot for male SD (Sprague Dawley) rats (5 animals/dosing group) in subcutaneous (SC+a letter A-E referring to different groups) administration of Anagrelide, and for oral administration (PO). […] The bioanalysis was conducted by using LC-MS/MS. […] After centrifugation at 4 degree Celsius, 4700 rpm for 15 min, the supernatant was diluted 3 times with water, and 10 μL of diluted supernatant was injected into the LC-MS/MS system for quantitative analysis. […]
Where a name gives a salt, the structure may show the parent alone.
REPORTED METRIC: AUClast/D (ng·h/mL per mg/kg)
Express your answer in ng·h/mL per mg/kg, writing the number without its unit.

For the molecule O=C1CN2Cc3c(ccc(Cl)c3Cl)N=C2N1 [Anagrelide HCl, Anagrelide hydrochloride] , what AUClast/D is on record?
29.8

###

# TEST DETAILS: In vivo pharmacokinetic experiment, oral and subcutaneous administration
# Parameters: species or system male SD (Sprague Dawley) rats
# CONDITION SET: male, Sprague-Dawley, rat, plasma, sc, 17.5 mg/kg, SCA, subcutaneous silica hydrogel composite #29HG depot 17.5 mg/kg, 12 h experiment
Counter-ions that a name gives are not always drawn.
REPORTED METRIC: half-life

What does the record list as half-life for O=C1CN2Cc3c(ccc(Cl)c3Cl)N=C2N1 [Anagrelide HCl, Anagrelide hydrochloride] ?
4.92 h

###

# TEST DETAILS: In vivo pharmacokinetic experiment, oral and subcutaneous administration
# Parameters: species or system male SD (Sprague Dawley) rats
# CONDITION SET: male, Sprague-Dawley, rat, plasma, sc, 35 mg/kg, SCD, subcutaneous silica hydrogel composite #29HG depot 35 mg/kg, 10 d experiment
Counter-ions that a name gives are not always drawn.
REPORTED METRIC: Cmax
Note: a bare number is incomplete; add the unit.

Name the reported Cmax value associated with the compound O=C1CN2Cc3c(ccc(Cl)c3Cl)N=C2N1 [Anagrelide HCl, Anagrelide hydrochloride]
5.29 ng/mL

###

# TEST DETAILS: In vivo pharmacokinetic experiment, oral and subcutaneous administration
# Design: species or system male SD (Sprague Dawley) rats
# CONDITION SET: male, Sprague-Dawley, rat, plasma, po, 5 mg/kg, oral suspension 5 mg/kg, 12 h experiment
Counter-ions that a name gives are not always drawn.
REPORTED METRIC: Cmax (ng/mL)
Give a bare numeral; the unit ng/mL is implied.

What value of measured Cmax is listed for O=C1CN2Cc3c(ccc(Cl)c3Cl)N=C2N1 [Anagrelide HCl, Anagrelide hydrochloride] ?
62

###

# TEST DETAILS: In vivo pharmacokinetic experiment, oral and subcutaneous administration
# Set-up: species or system male SD (Sprague Dawley) rats
# CONDITION SET: male, Sprague-Dawley, rat, plasma, sc, 35 mg/kg, SCE, subcutaneous silica hydrogel composite #29HG depot 35 mg/kg, 28 d experiment
Where a name gives a salt, the structure may show the parent alone.
REPORTED METRIC: AUC(0-t)

Sample O=C1CN2Cc3c(ccc(Cl)c3Cl)N=C2N1 [Anagrelide HCl, Anagrelide hydrochloride] — what was its AUC(0-t)?
1600 ng·h/mL

###

# TEST DETAILS: In vivo pharmacokinetic experiment, oral and subcutaneous administration
# Set-up: species or system male SD (Sprague Dawley) rats
# CONDITION SET: SCA, subcutaneous silica hydrogel composite #29HG depot 17.5 mg/kg, 12 h experiment
Counter-ions that a name gives are not always drawn.
REPORTED METRIC: AUClast/D (ng·h/mL per mg/kg)
Numeric answer only, unit ng·h/mL per mg/kg assumed.

Recorded AUClast/D of O=C1CN2Cc3c(ccc(Cl)c3Cl)N=C2N1 [Anagrelide HCl, Anagrelide hydrochloride] , please.
1.67

###

# TEST DETAILS: In vivo pharmacokinetic experiment, oral and subcutaneous administration
# Parameters: species or system male SD (Sprague Dawley) rats
# CONDITION SET: male, Sprague-Dawley, rat, plasma, sc, 17.5 mg/kg, SCA, subcutaneous silica hydrogel composite #29HG depot 17.5 mg/kg, 12 h experiment
Where a name gives a salt, the structure may show the parent alone.
REPORTED METRIC: AUC(0-t) (ng·h/mL)
Write the value in ng·h/mL as a bare number.

Sample O=C1CN2Cc3c(ccc(Cl)c3Cl)N=C2N1 [Anagrelide HCl, Anagrelide hydrochloride] — what was its AUC(0-t)?
29.2

###

# TEST DETAILS: In vivo pharmacokinetic experiment, oral and subcutaneous administration
# Parameters: species or system male SD (Sprague Dawley) rats
# CONDITION SET: male, Sprague-Dawley, rat, plasma, sc, 35 mg/kg, SCE, subcutaneous silica hydrogel composite #29HG depot 35 mg/kg, 28 d experiment
Structures can show the parent of a compound that is named as a salt.
REPORTED METRIC: half-life (h)
Respond numerically; units are h and should not be typed.

What value of measured half-life is listed for O=C1CN2Cc3c(ccc(Cl)c3Cl)N=C2N1 [Anagrelide HCl, Anagrelide hydrochloride] ?
167

###

# TEST DETAILS: In vivo pharmacokinetic experiment, oral and subcutaneous administration
# Set-up: species or system male SD (Sprague Dawley) rats
# CONDITION SET: PO, oral suspension 5 mg/kg, 12 h experiment
# Procedure: Silica hydrogel composite #29HG was used as a depot for male SD (Sprague Dawley) rats (5 animals/dosing group) in subcutaneous (SC+a letter A-E referring to different groups) administration of Anagrelide, and for oral administration (PO). […] The bioanalysis was conducted by using LC-MS/MS. […] After centrifugation at 4 degree Celsius, 4700 rpm for 15 min, the supernatant was diluted 3 times with water, and 10 μL of diluted supernatant was injected into the LC-MS/MS system for quantitative analysis. […]
Structures can show the parent of a compound that is named as a salt.
REPORTED METRIC: AUClast/D (ng·h/mL per mg/kg)
Output spec: scalar in ng·h/mL per mg/kg, unitless text.

Name the recorded AUClast/D for O=C1CN2Cc3c(ccc(Cl)c3Cl)N=C2N1 [Anagrelide HCl, Anagrelide hydrochloride] .
64

###

# TEST DETAILS: In vivo pharmacokinetic experiment, oral and subcutaneous administration
# Parameters: species or system male SD (Sprague Dawley) rats
# CONDITION SET: male, Sprague-Dawley, rat, plasma, sc, 35 mg/kg, SCC, subcutaneous silica hydrogel composite #29HG depot 35 mg/kg, 12 h experiment
Structures can show the parent of a compound that is named as a salt.
REPORTED METRIC: Cmax (ng/mL)
Unit ng/mL implied. Number only.

Entry O=C1CN2Cc3c(ccc(Cl)c3Cl)N=C2N1 [Anagrelide HCl, Anagrelide hydrochloride] : reported Cmax = ?
6.3

###

# TEST DETAILS: In vivo pharmacokinetic experiment, oral and subcutaneous administration
# Set-up: species or system male SD (Sprague Dawley) rats
# CONDITION SET: male, Sprague-Dawley, rat, plasma, sc, 35 mg/kg, SCD, subcutaneous silica hydrogel composite #29HG depot 35 mg/kg, 10 d experiment
Where a name gives a salt, the structure may show the parent alone.
REPORTED METRIC: Tmax (h)
Numbers only here, please. The scale is h.

Would you mind telling me what Tmax value was observed for O=C1CN2Cc3c(ccc(Cl)c3Cl)N=C2N1 [Anagrelide HCl, Anagrelide hydrochloride] ?
154

###

# TEST DETAILS: In vivo pharmacokinetic experiment, oral and subcutaneous administration
# Design: species or system male SD (Sprague Dawley) rats
# CONDITION SET: SCC, subcutaneous silica hydrogel composite #29HG depot 35 mg/kg, 12 h experiment
Where a name gives a salt, the structure may show the parent alone.
REPORTED METRIC: AUClast/D (ng·h/mL per mg/kg)
Respond with the bare value in ng·h/mL per mg/kg.

What value of AUClast/D has been reported for the following compound? O=C1CN2Cc3c(ccc(Cl)c3Cl)N=C2N1 [Anagrelide HCl, Anagrelide hydrochloride]
0.99

###

# TEST DETAILS: In vivo pharmacokinetic experiment, oral and subcutaneous administration
# Parameters: species or system male SD (Sprague Dawley) rats
# CONDITION SET: male, Sprague-Dawley, rat, plasma, sc, 17.5 mg/kg, SCB, subcutaneous silica hydrogel composite #29HG depot 17.5 mg/kg, 10 d experiment
# Protocol: Silica hydrogel composite #29HG was used as a depot for male SD (Sprague Dawley) rats (5 animals/dosing group) in subcutaneous (SC+a letter A-E referring to different groups) administration of Anagrelide, and for oral administration (PO). […] The bioanalysis was conducted by using LC-MS/MS. […] After centrifugation at 4 degree Celsius, 4700 rpm for 15 min, the supernatant was diluted 3 times with water, and 10 μL of diluted supernatant was injected into the LC-MS/MS system for quantitative analysis. […]
Counter-ions that a name gives are not always drawn.
REPORTED METRIC: AUC(0-t) (ng·h/mL)
// note: answer is a bare numeric in ng·h/mL

What does the record list as AUC(0-t) for O=C1CN2Cc3c(ccc(Cl)c3Cl)N=C2N1 [Anagrelide HCl, Anagrelide hydrochloride] ?
521

Cited source for all entries: patent US20230248647A1
